Conditions: buffer; pH 7.4; 200.0 µM
Classification field: enter Met for solubility kinetic values not below 30 µg/mL, Not met for values below it.

{"Molecule": "CCNC(=S)N1CCC(Cc2ccccc2)CC1", "Category": "Met"}
{"Molecule": "CCCCc1ccc(NC(=O)C(C)CC)cc1 (centres undefined)", "Category": "Not met"}
{"Molecule": "Nc1nc(-c2ccc(S(=O)(=O)N3CCCCC3)cc2)cs1", "Category": "Not met"}
{"Molecule": "CCN(CC)CCNC(=O)C(=O)Nc1ccc(C(=O)OC)cc1", "Category": "Met"}

API: above_or_equal(metric=solubility kinetic, cutoff=30 µg/mL) for item Cc1ccc(-c2nc(C#N)c(NCCCn3ccnc3)o2)cc1 Not met

Hi, just wondering whether COc1cc2c(cc1OC)/C(=C/C(=O)c1ccccc1F)NCC2 shows solubility kinetic of 30 µg/mL or higher. Met

Is the recorded value of solubility kinetic equal to or greater than 30 µg/mL for this molecule? Cc1noc(C)c1C(=O)N(CC(C)C)c1nc2ccccc2s1 Not met

Decide: is the reported value of solubility kinetic for S=C(Nc1cccnc1)N1CCN(c2ccccc2Cl)CC1 equal to or greater than 30 µg/mL? Met

Would you say O=C(CCNS(=O)(=O)c1ccc(Cl)cc1)N1CCCC1 shows solubility kinetic at minimum 30 µg/mL? Met

Could you please find out whether O=C(NN1CCOCC1)c1cccc(Br)c1 has solubility kinetic that meets 30 µg/mL or exceeds it? Met

Please tell me: is the molecule CC(C)(C)c1nc2ccc([N+](=O)[O-])cc2[nH]1 at or over 30 µg/mL in terms of solubility kinetic? Met

Has COCc1cc(=O)[nH]c(-c2ccc(C(F)(F)F)cc2)n1 a recorded solubility kinetic greater than or equal to 30 µg/mL? Met

Item O=C1COc2ccc(C(=O)NC3CC3)cc2N1 with solubility kinetic of 30 µg/mL or above? Met

Reported solubility kinetic at or above 30 µg/mL? O=C(NC1CCSc2ccccc21)c1ccccc1Cl (centres undefined) Not met
